- Assay explanation: Water solubility of the polymorphs
- Assay type: physicochemical
Reported property: solubility

# input compound: CCn1c(=O)c2c(nc(N[C@@H]3CCC[C@H]3O)n2Cc2ccc(OC)c(Br)c2)n(CCO)c1=O [Form 1 of Compound 13] ; wanted: its solubility
~50 µg/mL

====

- System name: PDE V isoenzyme (Homo sapiens)
Reported property: IC50

# query: IC50 of entry CCn1c(=O)c2c(nc(N[C@@H]3CCC[C@H]3O)n2Cc2ccc(OC)c(Br)c2)n(CCO)c1=O [Form 1 of Compound 13]
2 to 3 nM

Hello, the source for this data is patent US7192962B2, in case you need it.
